Test system: SK-OV-3
experimentSummary: Concentration required to inhibit SKOV-3-cell growth by 50%
Assay type: functional, cell-based
protocolConditions: Homo sapiens
measure: pIC50
On this scale, pIC50 is minus log10 of a concentration expressed in M (mol/L).

For orientation, consider the following solved cases.
C[N+]1(CCC(=O)Nc2ccc(NC(=O)CC[N+]3(C)CCCCC3)c3c2C(=O)c2ccccc2C3=O)CCCCC1 : 4.49
C[N+]1(CCC(=O)Nc2ccc(NC(=O)CC[N+]3(C)CCCCC3CO)c3c2C(=O)c2ccccc2C3=O)CCCCC1CO (stereo unspecified) : 5.82
C[N+]1(CC(=O)Nc2ccc3c(c2)C(=O)c2ccc(NC(=O)C[N+]4(C)CCCCC4)cc2C3=O)CCCCC1 : 5.05
CN(C)CCC(=O)Nc1ccc2c(c1)C(=O)c1ccc(NC(=O)CCN(C)C)cc1C2=O : 5.54
C[N+]1(CCC(=O)Nc2ccc3c(c2)C(=O)c2ccc(NC(=O)CC[N+]4(C)CCOCC4)cc2C3=O)CCOCC1 : 5.52

Task: Indicate the recorded pIC50 value for this molecule: CCCN(CCC)CCC(=O)Nc1ccc2c(c1)C(=O)c1ccc(NC(=O)CCN(CCC)CCC)cc1C2=O
Result: 5.62

Task: Indicate the recorded pIC50 value for this molecule: O=C(CCN1CCOCC1)Nc1ccc2c(c1)C(=O)c1ccc(NC(=O)CCN3CCOCC3)cc1C2=O
Result: 5.05

Task: Indicate the recorded pIC50 value for this molecule: C[N+](C)(C)CCC(=O)Nc1ccc2c(c1)C(=O)c1ccc(NC(=O)CC[N+](C)(C)C)cc1C2=O
Result: 5.36

Task: Indicate the recorded pIC50 value for this molecule: O=C(CCN1CCN(CCO)CC1)Nc1ccc2c(c1)C(=O)c1ccc(NC(=O)CCN3CCN(CCO)CC3)cc1C2=O
Result: 5.15

Task: Indicate the recorded pIC50 value for this molecule: O=C(CCN1CCCCC1)Nc1ccc(NC(=O)CCN2CCCCC2)c2c1C(=O)c1ccccc1C2=O
Result: 5.62

###

targetOrSystem: UniProt:O14746
experimentSummary: Concentration required to inhibit telomerase activity
measure: IC50 (µM)
Just the number in µM, nothing appended.

Task: Tell me its IC50 on UniProt:O14746: Nc1nc2c(ncn2[C@H]2CC[C@@H](COP(=O)(O)OP(=O)(O)OP(=O)(O)O)O2)c(=O)[nH]1 [DIDEOXY GUANOSINE TRIPHOSPHATE]
Result: 8.6

###

Here the recorded pIC50 is given for each entry.
targetOrSystem: Telomerase reverse transcriptase (Homo sapiens)
Sequence (O14746 whole entry): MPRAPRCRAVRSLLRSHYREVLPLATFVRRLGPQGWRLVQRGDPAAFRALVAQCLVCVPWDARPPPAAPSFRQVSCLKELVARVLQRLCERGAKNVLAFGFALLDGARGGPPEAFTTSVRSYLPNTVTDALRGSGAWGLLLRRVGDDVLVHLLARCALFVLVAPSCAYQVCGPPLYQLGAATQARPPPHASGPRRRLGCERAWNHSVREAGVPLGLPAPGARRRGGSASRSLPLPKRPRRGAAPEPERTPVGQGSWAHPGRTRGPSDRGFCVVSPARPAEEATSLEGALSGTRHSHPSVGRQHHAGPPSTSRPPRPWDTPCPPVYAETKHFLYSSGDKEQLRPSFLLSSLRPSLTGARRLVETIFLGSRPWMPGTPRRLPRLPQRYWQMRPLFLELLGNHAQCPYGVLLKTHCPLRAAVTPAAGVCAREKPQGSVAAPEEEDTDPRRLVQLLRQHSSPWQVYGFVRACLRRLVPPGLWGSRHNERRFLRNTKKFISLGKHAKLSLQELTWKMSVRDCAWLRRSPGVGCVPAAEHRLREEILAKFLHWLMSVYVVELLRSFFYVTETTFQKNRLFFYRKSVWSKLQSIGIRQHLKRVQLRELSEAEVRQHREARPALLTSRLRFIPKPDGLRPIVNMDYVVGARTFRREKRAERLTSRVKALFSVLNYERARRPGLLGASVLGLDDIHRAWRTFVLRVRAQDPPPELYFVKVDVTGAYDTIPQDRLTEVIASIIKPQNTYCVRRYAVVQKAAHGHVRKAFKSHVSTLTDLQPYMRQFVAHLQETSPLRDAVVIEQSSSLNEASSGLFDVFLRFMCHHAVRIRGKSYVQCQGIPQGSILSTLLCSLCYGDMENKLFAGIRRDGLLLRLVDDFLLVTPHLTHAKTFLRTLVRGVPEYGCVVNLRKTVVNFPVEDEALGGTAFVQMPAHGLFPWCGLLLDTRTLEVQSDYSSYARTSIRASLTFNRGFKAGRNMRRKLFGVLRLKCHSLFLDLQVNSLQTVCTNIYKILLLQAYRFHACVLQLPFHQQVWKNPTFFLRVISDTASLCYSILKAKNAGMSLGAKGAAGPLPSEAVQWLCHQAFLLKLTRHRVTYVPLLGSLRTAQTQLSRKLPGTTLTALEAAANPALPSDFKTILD
experimentSummary: Inhibition of telomerase activity
On this scale, pIC50 is minus log10 of a concentration expressed in M (mol/L).

For orientation, consider the following solved cases.
C[N+]1(CCC(=O)Nc2ccc(NC(=O)CC[N+]3(C)CCOCC3)c3c2C(=O)c2ccccc2C3=O)CCOCC1 : 4.46
O=C(CCN1CCN(CCO)CC1)Nc1ccc2c(c1)C(=O)c1ccc(NC(=O)CCN3CCN(CCO)CC3)cc1C2=O : 4.78
O=C(CCN1CCOCC1)Nc1ccc(NC(=O)CCN2CCOCC2)c2c1C(=O)c1ccccc1C2=O : 4.47

Task: Indicate the recorded pIC50 value for this molecule: O=C(CCN1CCCCC1)Nc1ccc2c(c1)C(=O)c1ccc(NC(=O)CCN3CCCCC3)cc1C2=O
Result: 5.35
